molecular target: Recombinant human HDAC1 (Homo sapiens, UniProt Q13547); construct: FLAG (C); made in house; assay: Human HDAC enzyme inhibitor Fluor-de-Lys assay, HDAC1; format: biochemical; conditions: recombinant human HDAC1, Fluor-de-Lys assay
Sequence (Q13547 whole entry): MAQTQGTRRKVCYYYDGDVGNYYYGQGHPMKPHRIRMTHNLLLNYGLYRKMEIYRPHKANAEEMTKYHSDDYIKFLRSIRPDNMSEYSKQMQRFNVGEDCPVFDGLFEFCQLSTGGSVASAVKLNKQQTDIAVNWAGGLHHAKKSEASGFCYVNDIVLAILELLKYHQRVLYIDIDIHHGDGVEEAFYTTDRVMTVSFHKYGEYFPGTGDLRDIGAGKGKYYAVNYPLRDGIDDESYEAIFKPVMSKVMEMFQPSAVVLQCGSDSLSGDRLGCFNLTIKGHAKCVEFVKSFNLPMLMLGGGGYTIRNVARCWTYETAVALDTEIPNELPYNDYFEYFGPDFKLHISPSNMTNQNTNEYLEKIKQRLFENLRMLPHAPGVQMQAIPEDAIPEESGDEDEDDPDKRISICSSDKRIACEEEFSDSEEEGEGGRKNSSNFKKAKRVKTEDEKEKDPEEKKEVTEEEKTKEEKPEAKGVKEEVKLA
Field: IC50. Provide a value for each of the compounds that follow.
Could you kindly put the unit after your number?

Reported IC50, compound `CCC(=O)CCCCC[C@H](NC(=O)[C@H]1CC12CCN(C)CC2)c1ncc(-c2ccn3ncnc3c2)[nH]1` : ____ 46.7 nM

Now the same for `CCC(=O)CCCCC[C@H](N)c1ncc(-c2cc3ccc(=O)n(C)c3cc2OC)o1` 38.7 nM

Now the same for `CCC(=O)CCCCC[C@H](NC(=O)C1=NOC2(CCN(CC3CC3)CC2)C1)c1ncc(-c2cc3ccc(=O)n(C)c3cc2OC)o1` 0.36 nM

Now the same for `CCC(=O)CCCCC[C@H](NCC1CC1)c1ncc(-c2cc3ccc(C)nc3cc2OC)[nH]1` 186 nM

Now the same for `CCC(=O)CCCCC[C@@H](NC(=O)C1CCC2(CC1)CN(C)C2)c1ncc(-c2ccccc2)[nH]1` 33 nM

Now the same for `CCC(=O)CCCCC[C@H](NC(=O)[C@H]1CC12CCN(C)CC2)c1ncc(-c2cnc(-n3cc(C)cn3)nc2)[nH]1` 64.8 nM

Now the same for `CCC(=O)CCCCC[C@H](NC(=O)[C@H]1CC[C@@]2(CC1)OC(=O)c1cccnc12)c1nnc(-c2cc3ccccc3nc2OC)o1` 89.4 nM

Now the same for `CCC(=O)CCCCC[C@H](NC(=O)[C@H]1CC12CCN(C)CC2)c1ncc(-c2ccc3c(c2)c2ccccc2n3C)[nH]1` 5.14 nM

Now the same for `CCC(=O)CCCCC[C@H](NC(=O)C1=NOC2(CCN(C)CC2)C1)c1ncc(-c2ccc(Cl)cc2OC)o1` 18 nM

Now the same for `CCC(=O)CCCCC[C@H](NC(=O)[C@H]1CC[C@]2(CC1)OC(=O)c1ncccc12)c1nnc(-c2cc3ccccc3nc2OC)o1` 25.9 nM

Now the same for `CCC(=O)CCCCC[C@H](NC(=O)C1=NOC2(CCN(CC)CC2)C1)c1ncc(-c2cc3ccc(C)nc3cc2F)[nH]1` 3.59 nM

Now the same for `CCCC(=O)CCCCC[C@H](NC(=O)[C@H]1CC12CCN(C)CC2)c1ncc(-c2ccc(F)cc2)[nH]1` 13.9 nM

Now the same for CCC(=O)CCCCC[C@H](NC(=O)C1CC12CCN(CC)CC2)c1nc(-c2ccc(F)cc2)[nH]c1-c1cnc(OC)nc1 (some centres unmarked) 39 nM

Now the same for `CCC(=O)CCCCC[C@H](NC(=O)CC1CC2(C1)CN(C)C2)c1nnc(-c2cc3ccccc3nc2OC)o1` 27.3 nM
